Origin of the recorded values: ChEMBL document CHEMBL4513216

- Test system: Plasmodium berghei
- assay-comment: Screen against P. berghei liver stage (PbLuc), transformed with Luciferase, at 10uM
- Type: functional, HepG2
- study-conditions: tested at 10 uM
In all, about 69,000 compounds went through this assay and about 8,600 (12%) showed an effect of 50% or more. The full list was thinned out, with strong results kept by preference.
Labelling: INHIBITION reported below 50% becomes 1; at or above becomes -1.

A selection of reference data follows.
CCOc1ccccc1C(=O)NCCc1ccoc1: 1
Cc1nc(CN2C(=O)C[C@H]3[C@H]2CCN3CC2CCOC2)cs1 (some centres undefined): -1
COc1ccc(C(=O)C2CCCN(CCCn3cccn3)C2)c(OC)c1 (centres undefined): 1

Challenge: Is 50% strictly greater than the compound's reported INHIBITION? compound: "Cc1ccc(CN2CC3(CCN(C(=O)c4cscn4)C3)C2)s1"
Response given: 1

Challenge: Please answer likewise for COc1ccc(C(=O)C2CCCN(Cc3ccccc3O)C2)c(OC)c1 (centres undefined)
Response given: 1

Challenge: Next record, please: COc1ccc(C(=O)C2CCCN(Cc3ccncc3)C2)c(OC)c1 (centres undefined)
Response given: 1

Challenge: Note, next up: "Cc1noc(C)c1CN1CCC2(CC1)CCN(C(=O)c1cscn1)C2"
Response given: 1

Challenge: What do you get for COCC1CN(C(=O)c2ccoc2C)Cc2nccn2C1 (centres undefined) ?
Response given: 1

Challenge: Also "O=C(c1cscn1)N1CCC2(CCN(Cc3nccs3)CC2)C1" , if possible.
Response given: 1

Challenge: Continue with "CC(C)N1C(=O)CN(CCOCCO)CC1(C)C"
Response given: 1

Challenge: Now give it for "Cc1cnc(N2CC3(CCN(C(=O)c4cccnc4)C3)C2)nc1" too.
Response given: 1

Challenge: // next record "CN(C)CCN(Cc1ccc(C(F)(F)F)cc1)C(=O)c1cc[nH]n1"
Response given: -1

Challenge: // next record "O=C(c1cscn1)N1CCC2(CN(Cc3ccoc3)C2)C1"
Response given: 1

Challenge: Field entry: COc1ccc(C(=O)C2CCCN(CCc3ccccc3)C2)c(OC)c1 (centres undefined)
Response given: -1
